Where do these numbers come from? They come from ChEMBL document CHEMBL1153046.

# assay-remarks: Growth inhibition of human Hs 578T cells after 48 hrs by sulforhodamine B assay
# Type: functional
# GI50 listing for each entry below

compound	GI50 (µM)
COc1ccc(/C=N/c2nc3[nH]nc(C)n3c(=O)c2S(=O)(=O)NN2C(=O)C(CN3CCOCC3)SC2c2cccs2)cc1 (centres undefined)	13.3
COc1ccc(/C=N/c2nc3[nH]nc(C)n3c(=O)c2S(=O)(=O)NN2C(=O)C(CN3CCN(C)CC3)SC2c2ccc(OC)cc2)cc1 (centres undefined)	13
COc1ccc(/C=N/c2nc3[nH]nc(C)n3c(=O)c2S(=O)(=O)NN2C(=O)C(CN3CCOCC3)SC2c2ccc(OC)cc2)cc1 (centres undefined)	41.1
COc1ccc(/C=N/c2nc3[nH]nc(C)n3c(=O)c2S(=O)(=O)NN2C(=O)C(CN3CCN(C)CC3)SC2c2cccs2)cc1 (centres undefined)	3.05
